# Test name: Cytotoxicity against Swiss mouse peritoneal macrophages after 24 hrs by MTT assay
# Format: cell-based, Peritoneal macrophage cell
Measurement name: CC50 at 24 h (µM)

{"Smiles str": "N#Cc1c(/N=C/c2cc3ccccc3[nH]2)sc2c1CCCCC2", "Reported value": 49.1}
{"Smiles str": "N#Cc1c(/N=C/c2ccc3ncccc3c2)sc2c1CCC2", "Reported value": 196}
{"Smiles str": "C[C@@H]1[C@H](O)[C@@H](C)/C=C/C=C/C=C/C=C/C=C/C=C/C=C/[C@H](O[C@@H]2O[C@H](C)[C@@H](O)[C@H](N)[C@@H]2O)C[C@@H]2O[C@](O)(C[C@@H](O)C[C@@H](O)[C@H](O)CC[C@@H](O)C[C@@H](O)CC(=O)O[C@H]1C)C[C@H](O)[C@H]2C(=O)O", "Reported value": 0.18}
{"Smiles str": "N#Cc1c(/N=C/c2ccc([N+](=O)[O-])cc2)sc2c1CCCC2", "Reported value": 229}
{"Smiles str": "N#Cc1c(/N=C/c2ccc3ncccc3c2)sc2c1CCCCC2", "Reported value": 438}
{"Smiles str": "N#Cc1c(/N=C/c2cc3cc(Br)ccc3[nH]2)sc2c1CCCC2", "Reported value": 113}
{"Smiles str": "N#Cc1c(/N=C/c2cccs2)sc2c1CCCCC2", "Reported value": 722}
{"Smiles str": "N#Cc1c(/N=C/c2ccccc2)sc2c1CCCC2", "Reported value": 141}
{"Smiles str": "COc1ccc(Br)c(/C=N/c2sc3c(c2C#N)CCCC3)c1", "Reported value": 211}
{"Smiles str": "N#Cc1c(/N=C/c2cccs2)sc2c1CCC2", "Reported value": 540}
{"Smiles str": "N#Cc1c(/N=C/c2cc3cc(Br)ccc3[nH]2)sc2c1CCCCC2", "Reported value": 32}
